The measured values listed here are drawn from patent US8871753B2.

- tgt: Recombinant Human Anaplastic Lymphoma Kinase (Homo sapiens)
- Construct: purchased Invitrogen, Carlsbad, Calif
- Sequence (Q9UM73 19-1620): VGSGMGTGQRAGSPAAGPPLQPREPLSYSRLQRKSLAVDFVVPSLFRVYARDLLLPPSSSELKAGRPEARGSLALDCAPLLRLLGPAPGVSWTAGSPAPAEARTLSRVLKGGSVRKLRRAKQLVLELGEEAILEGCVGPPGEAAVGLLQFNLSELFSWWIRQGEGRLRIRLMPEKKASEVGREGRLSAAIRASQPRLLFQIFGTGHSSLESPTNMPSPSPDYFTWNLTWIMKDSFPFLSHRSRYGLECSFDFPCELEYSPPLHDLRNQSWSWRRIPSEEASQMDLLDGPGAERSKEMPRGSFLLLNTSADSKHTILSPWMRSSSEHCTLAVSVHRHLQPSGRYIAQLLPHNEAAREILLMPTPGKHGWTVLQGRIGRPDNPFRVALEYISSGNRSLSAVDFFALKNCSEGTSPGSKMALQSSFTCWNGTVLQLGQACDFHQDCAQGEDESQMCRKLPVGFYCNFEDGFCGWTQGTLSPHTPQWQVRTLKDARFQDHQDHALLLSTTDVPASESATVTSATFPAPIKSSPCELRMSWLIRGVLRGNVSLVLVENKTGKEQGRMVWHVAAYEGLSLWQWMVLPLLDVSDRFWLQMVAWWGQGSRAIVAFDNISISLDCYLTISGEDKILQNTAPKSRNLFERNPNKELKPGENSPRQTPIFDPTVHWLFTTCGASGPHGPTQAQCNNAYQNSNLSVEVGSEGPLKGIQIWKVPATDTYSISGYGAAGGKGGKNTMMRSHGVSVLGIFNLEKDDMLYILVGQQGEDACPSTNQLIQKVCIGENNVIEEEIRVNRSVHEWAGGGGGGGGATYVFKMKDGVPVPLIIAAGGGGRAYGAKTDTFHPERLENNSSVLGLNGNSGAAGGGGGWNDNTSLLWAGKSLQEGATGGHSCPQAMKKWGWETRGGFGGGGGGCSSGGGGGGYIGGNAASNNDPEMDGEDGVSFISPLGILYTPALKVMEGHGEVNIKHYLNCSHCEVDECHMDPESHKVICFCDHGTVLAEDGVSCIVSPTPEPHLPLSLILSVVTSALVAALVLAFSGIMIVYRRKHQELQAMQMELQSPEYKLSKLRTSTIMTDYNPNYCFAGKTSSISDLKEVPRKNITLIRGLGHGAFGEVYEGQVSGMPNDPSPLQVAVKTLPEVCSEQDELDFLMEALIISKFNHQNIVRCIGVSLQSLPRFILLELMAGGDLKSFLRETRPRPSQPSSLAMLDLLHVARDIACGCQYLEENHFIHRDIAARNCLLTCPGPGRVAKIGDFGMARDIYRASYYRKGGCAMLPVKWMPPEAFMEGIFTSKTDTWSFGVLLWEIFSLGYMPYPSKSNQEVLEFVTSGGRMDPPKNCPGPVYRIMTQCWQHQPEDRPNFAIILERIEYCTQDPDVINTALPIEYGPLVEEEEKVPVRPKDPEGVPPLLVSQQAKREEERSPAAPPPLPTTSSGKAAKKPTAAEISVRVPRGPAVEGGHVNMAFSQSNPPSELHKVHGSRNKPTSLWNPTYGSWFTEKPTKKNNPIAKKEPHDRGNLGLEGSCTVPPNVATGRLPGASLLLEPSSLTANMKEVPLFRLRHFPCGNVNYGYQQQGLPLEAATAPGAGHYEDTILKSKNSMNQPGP
- procedure_summary: ALK HTRF kinase assay
- Type: biochemical
- settings: compound at a concentration of 500 nM or 1 mM (not specified); cells shown as percentage
Structures can show the parent of a compound that is named as a salt.
property: ALK % of inhibition at a concentration of 500 nM or 1 mM (%)

[
  {
    "compound": "O=C(Nc1nc[nH]n1)Nc1ccc2cc1CCc1cccc(c1)Nc1ncc(Cl)c(n1)N2 [Example B244, trifluoroacetate]",
    "measurement_units": "%",
    "numeric_value": 63
  },
  {
    "compound": "O=C(Nc1nc(C(=O)O)cs1)Nc1ccc2cc1CCc1cccc(c1)Nc1ncc(Cl)c(n1)N2 [Example B250, trifluoroacetate]",
    "measurement_units": "%",
    "numeric_value": 66
  },
  {
    "compound": "Cn1ccc(C(=O)N2CC[C@H](NC(=O)Nc3ccc4cc3CCc3cccc(c3)Nc3ncc(Cl)c(n3)N4)C2)n1 [Example B232, bis(trifluoroacetate)]",
    "measurement_units": "%",
    "numeric_value": 10
  },
  {
    "compound": "Cc1cc(C(=O)N2CCC(NC(=O)Nc3ccc4cc3CCc3cccc(c3)Nc3ncc(Cl)c(n3)N4)CC2)no1 [Example B263, trifluoroacetate]",
    "measurement_units": "%",
    "numeric_value": 29
  },
  {
    "compound": "O=C(NCCN1CCCC1)Nc1ccc2cc1CCc1cccc(c1)Nc1ncc(Cl)c(n1)N2 [Example B255, bis(trifluoroacetate)]",
    "measurement_units": "%",
    "numeric_value": 32
  },
  {
    "compound": "O=C(Nc1ccc2c(c1)CCC2)Nc1ccc2cc1CCc1cccc(c1)Nc1ncc(Cl)c(n1)N2 [Example B103, trifluoroacetate]",
    "measurement_units": "%",
    "numeric_value": 49
  },
  {
    "compound": "Cc1cccc(Cl)c1NC(=O)Nc1ccc2cc1CCc1cccc(c1)Nc1ncc(Cl)c(n1)N2 [Example B122, trifluoroacetate]",
    "measurement_units": "%",
    "numeric_value": 13
  },
  {
    "compound": "O=C(NCCNC(=O)c1ccccc1)Nc1ccc2cc1CCc1cccc(c1)Nc1ncc(Cl)c(n1)N2 [Example B189, trifluoroacetate]",
    "measurement_units": "%",
    "numeric_value": 15
  },
  {
    "compound": "O=C(Nc1ccc2cc1CCc1cncc(c1)Nc1ncc(Cl)c(n1)N2)N1CCN(c2ccc(F)cc2)CC1 [Example B297, tris(trifluoroacetate)]",
    "measurement_units": "%",
    "numeric_value": 66
  },
  {
    "compound": "N#Cc1ccc(NC(=O)Nc2cc3cc(c2)Nc2nc(ncc2Cl)Nc2cccc(c2)CC3)cc1 [Example B212, trifluoroacetate]",
    "measurement_units": "%",
    "numeric_value": 14
  },
  {
    "compound": "CC(C)(C)OC(=O)N1CCN(CCNC(=O)Nc2ccc3cc2CCc2cccc(c2)Nc2ncc(Cl)c(n2)N3)CC1 [Example B259]",
    "measurement_units": "%",
    "numeric_value": 13
  },
  {
    "compound": "O=C(Nc1ccc2cc1CCc1cccc(c1)Nc1ncc(Cl)c(n1)N2)N[C@H]1CCN(C(=O)c2ccncc2)C1 [Example B234, bis(trifluoroacetate)]",
    "measurement_units": "%",
    "numeric_value": 31
  },
  {
    "compound": "CC(=O)N1CCN(Cc2ccc3cc2CCc2cccc(c2)Nc2ncc(Cl)c(n2)N3)CC1 [Example B225, bis(trifluoroacetate)]",
    "measurement_units": "%",
    "numeric_value": 27
  },
  {
    "compound": "O=C(Nc1ccc2cc1CCc1cccc(c1)Nc1ncc(Cl)c(n1)N2)Nc1cccc2c1CCCC2 [Example B109, trifluoroacetate]",
    "measurement_units": "%",
    "numeric_value": 0
  },
  {
    "compound": "CNC(=O)Nc1ccc2cc1CCc1cncc(c1)Nc1ncc(Cl)c(n1)N2 [Example B135, bis(trifluoroacetate)]",
    "measurement_units": "%",
    "numeric_value": 13
  },
  {
    "compound": "CS(=O)(=O)NCCNC(=O)Nc1ccc2cc1CCc1cccc(c1)Nc1ncc(Cl)c(n1)N2 [Example B187, trifluoroacetate]",
    "measurement_units": "%",
    "numeric_value": 29
  },
  {
    "compound": "CC(C)NC(=O)Nc1ccc2cc1CCc1cccc(c1)Nc1ncc(Cl)c(n1)N2 [Example B116, trifluoroacetate]",
    "measurement_units": "%",
    "numeric_value": 20
  },
  {
    "compound": "O=C(NCCN1CCCCC1)Nc1ccc2cc1CCc1cccc(c1)Nc1ncc(Cl)c(n1)N2 [Example B258, bis(trifluoroacetate)]",
    "measurement_units": "%",
    "numeric_value": 29
  },
  {
    "compound": "COc1ccc(S(=O)(=O)Nc2ccc3cc2CCc2cccc(c2)Nc2ncc(Cl)c(n2)N3)cc1 [Example B156, trifluoroacetate]",
    "measurement_units": "%",
    "numeric_value": 28
  },
  {
    "compound": "COc1ccc(NC(=O)Nc2ccc3cc2CCc2cccc(c2)Nc2ncc(Cl)c(n2)N3)cc1 [Example B101, trifluoroacetate]",
    "measurement_units": "%",
    "numeric_value": 39
  },
  {
    "compound": "O=C(Nc1ccc2cc1CCc1cccc(c1)Nc1ncc(Cl)c(n1)N2)N[C@H]1CCN(C(=O)c2ccccn2)C1 [Example B233, bis(trifluoroacetate)]",
    "measurement_units": "%",
    "numeric_value": 5.8
  },
  {
    "compound": "NS(=O)(=O)N1CCC(NC(=O)Nc2ccc3cc2CCc2cccc(c2)Nc2ncc(Cl)c(n2)N3)CC1 [Example B183, trifluoroacetate]",
    "measurement_units": "%",
    "numeric_value": 26
  },
  {
    "compound": "CC(=O)Nc1ccc(S(=O)(=O)Nc2ccc3cc2CCc2cccc(c2)Nc2ncc(Cl)c(n2)N3)cc1 [Example B161, trifluoroacetate]",
    "measurement_units": "%",
    "numeric_value": 58
  },
  {
    "compound": "O=C(Nc1ccc2cc1CCc1cccc(c1)Nc1ncc(Cl)c(n1)N2)NC12CC3CC(CC(C3)C1)C2 [Example B127, trifluoroacetate]",
    "measurement_units": "%",
    "numeric_value": 6.1
  },
  {
    "compound": "O=C(Nc1ccc2cc1CCc1cncc(c1)Nc1ncc(Cl)c(n1)N2)N[C@H]1CCN(C(=O)c2cn[nH]c2)C1 [Example B267, bis(trifluoroacetate)]",
    "measurement_units": "%",
    "numeric_value": 12
  }
]
